Molecular target: human 4-1BB on cells (human, UniProt Q07011 24-255)
Sequence (Q07011 24-255): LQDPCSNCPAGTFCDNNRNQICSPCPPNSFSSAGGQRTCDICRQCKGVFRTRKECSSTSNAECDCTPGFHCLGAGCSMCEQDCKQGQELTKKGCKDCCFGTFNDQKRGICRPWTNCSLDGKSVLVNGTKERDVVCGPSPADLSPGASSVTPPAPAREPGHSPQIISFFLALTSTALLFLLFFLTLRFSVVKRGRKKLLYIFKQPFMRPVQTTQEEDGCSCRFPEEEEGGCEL
Assay: cell-based or functional assay
Measurement label: NF-KB reporter activation, curve fit Bottom (RLU)

[
  {
    "Binder": "cAB 137QL.G28.21.G2 (antibody, human IgG2, V domains shown, Chimeric antibody; also called Chimeric G28.21; cAb G28.21.G2) VH: EVQLQQSGAELVRPGASVKLSCTASGFNIKDYYIHWVNQRPEQGLEWIGRIDPEDGDIAYAPKFQDKATLTVDTSSNTAYLHIIGLTSEDTAVYYCTTGNYYAMDFWGQGTSVTVSS VL: QIVLTQSPAIMSASLGERVTMTCTASSSVSSSYLHWYQQKPGSSPKLWIYSTSNLASGVPARFSGSGSGTSYSLTISSMEAEDAATYYCHQYHRSPPTFGSGTKLEIK",
    "Measured number": 879
  },
  {
    "Binder": "huG28.21.G2.1.4 (antibody, human IgG2, kappa, V domains shown, also called huG28.21.1.4) VH: EVQLVQSGAEVKKPGATVKISCKASGFNIKDYYIHWVNQAPGKGLEWIGRIDPEDGDIAYAPKFQDRVTLTVDTSTDTAYLELSSLRSEDTAVYYCTTGNYYAMDFWGQGTTVTVSS VL: QIVLTQSPATLSASPGERVTLSCTASSSVSSSYLHWYQQKPGSSPKLWIYSTSNLASGVPARFSGSGPGTSYTLTISSMEPEDAATYYCHQYHRSPPTFGQGTKLEIKR",
    "Measured number": 625
  },
  {
    "Binder": "huG28.21.G2.4.4 (antibody, human IgG2, kappa, V domains shown, also called huG28.21.4.4) VH: EVQLQQSGAEVKKPGATVKLSCKASGFNIKDYYIHWVNQRPGQGLEWIGRIDPEDGDIAYAPKFQDRATLTVDTSTNTAYLELSSLRSEDTAVYYCTTGNYYAMDFWGQGTTVTVSS VL: QIVLTQSPATLSASPGERVTLSCTASSSVSSSYLHWYQQKPGSSPKLWIYSTSNLASGVPARFSGSGPGTSYTLTISSMEPEDAATYYCHQYHRSPPTFGQGTKLEIKR",
    "Measured number": 592
  }
]
